meta.source: the supplement of paper PMC8728848

biological target: Gal(b1-4)GalNAc(a1-3)[Fuc(a1-2)]Gal(b1-4)GlcNAc; experiment: glycan array binding signal (z-score within array); higher = stronger binding; settings: glycan notation: IUPAC condensed, linker removed
This excerpt belongs to a sample that is enriched for the strongest signals.
readout_name: glycan array binding signal (z-score)

binder="SJCP1084 (Schistosoma japonicum) (protein) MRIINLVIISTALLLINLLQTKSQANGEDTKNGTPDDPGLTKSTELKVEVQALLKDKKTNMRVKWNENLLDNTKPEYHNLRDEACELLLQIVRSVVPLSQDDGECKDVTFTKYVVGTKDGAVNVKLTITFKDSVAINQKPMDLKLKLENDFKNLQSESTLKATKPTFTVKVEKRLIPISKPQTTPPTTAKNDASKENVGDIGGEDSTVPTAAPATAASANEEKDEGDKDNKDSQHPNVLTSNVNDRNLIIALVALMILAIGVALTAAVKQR" readout_name="glycan array binding signal (z-score)" measured_value=-0.495
binder="BC2L-D C-terminal domain (Burkholderia cenocepacia), Q39MQ9_BURS3 (protein) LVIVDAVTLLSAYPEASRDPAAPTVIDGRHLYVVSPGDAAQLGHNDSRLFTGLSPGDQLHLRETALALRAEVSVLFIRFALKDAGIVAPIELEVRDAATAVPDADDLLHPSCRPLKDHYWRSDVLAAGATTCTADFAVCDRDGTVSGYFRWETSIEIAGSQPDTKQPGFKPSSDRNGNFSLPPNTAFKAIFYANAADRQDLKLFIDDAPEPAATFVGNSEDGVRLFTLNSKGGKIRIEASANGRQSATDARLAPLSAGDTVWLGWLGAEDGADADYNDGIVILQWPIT" readout_name="glycan array binding signal (z-score)" measured_value=-0.242

So what's the measured glycan array binding signal (z-score) for this one? Epa11 (Candida glabrata) (protein) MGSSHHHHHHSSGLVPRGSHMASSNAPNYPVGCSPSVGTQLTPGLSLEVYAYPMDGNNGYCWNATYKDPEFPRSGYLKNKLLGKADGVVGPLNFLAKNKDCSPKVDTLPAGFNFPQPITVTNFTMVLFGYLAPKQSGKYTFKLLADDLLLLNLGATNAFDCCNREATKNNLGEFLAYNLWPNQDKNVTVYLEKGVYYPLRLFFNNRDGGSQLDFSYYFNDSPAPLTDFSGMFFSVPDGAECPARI -0.453
